Ref: ChEMBL document CHEMBL3352465

- TESTED SYSTEM: CYP1A2 (Homo sapiens, UniProt P05177)
- Sequence (P05177 whole entry): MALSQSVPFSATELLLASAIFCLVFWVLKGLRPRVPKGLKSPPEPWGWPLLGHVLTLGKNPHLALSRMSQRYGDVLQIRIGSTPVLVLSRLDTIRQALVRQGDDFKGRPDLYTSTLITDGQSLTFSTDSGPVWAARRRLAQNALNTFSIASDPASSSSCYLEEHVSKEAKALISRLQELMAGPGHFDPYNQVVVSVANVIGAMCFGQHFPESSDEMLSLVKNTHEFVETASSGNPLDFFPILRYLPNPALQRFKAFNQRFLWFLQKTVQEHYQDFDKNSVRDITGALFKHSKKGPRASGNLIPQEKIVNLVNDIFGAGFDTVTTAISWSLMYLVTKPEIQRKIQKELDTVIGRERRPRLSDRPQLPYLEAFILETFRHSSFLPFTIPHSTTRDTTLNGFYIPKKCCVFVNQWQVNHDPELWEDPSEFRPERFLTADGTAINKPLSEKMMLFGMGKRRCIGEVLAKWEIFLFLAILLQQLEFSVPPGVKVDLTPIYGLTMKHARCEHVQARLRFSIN
- RUN DESCRIPTION: Drug metabolism assessed as human CYP1A2-mediated compound turnover
- Type: ADME
- SETUP CONDITIONS: recombinant enzyme, read-out: Drug metabolism
QUANTITY MEASURED: metabolised (%)
Report the value in % with no unit label.

Find the recorded metabolised belonging to Cc1nc(N2CCN(C)CC2)c2nc(-c3ccccc3Cl)n([C@H](C)CO)c2n1 and report it.
80
